Target: T1, 4H1877-AA
T1 chain: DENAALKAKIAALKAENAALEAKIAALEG
Experiment: two-hybrid library CCmax;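 further: natural log of median RNA to DNA barcode read ratio; higher means stronger binding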
Settings: mean of both orientations
So basically: is interaction score under -0.6? Then fulfilled. Not under? Then not fulfilled.

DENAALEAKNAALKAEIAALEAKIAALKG [4H1478-AA]: not fulfilled
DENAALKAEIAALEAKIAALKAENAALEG [4H1579-AA]: fulfilled
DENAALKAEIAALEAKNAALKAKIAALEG [4H1597-AA]: not fulfilled

For this binder, is interaction score lower than -0.6? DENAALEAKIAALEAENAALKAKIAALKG [4H1310-AA] not fulfilled

Is it true that interaction score reported for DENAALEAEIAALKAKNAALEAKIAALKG [4H1142-AA] is less than -0.6? not fulfilled

Say whether its interaction score is strictly beneath -0.6. Entry: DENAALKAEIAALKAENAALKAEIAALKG [4H1626-AA] fulfilled
